# test-description: Determination of the logP values by HPLC on a reverse-phase column (C 18)
# Type: physicochemical
# conditions-used: HPLC on a reverse-phase column (C 18); separated α/β isomers
Examples of compounds with documented log P* follow.
recorded-endpoint: log P*

compound | observed-result
CCc1cc(Cl)c(C2=C(O)C3(CCC4(CCCO4)CC3)OC2=O)c(Br)c1 (single isomer, unassigned) [Example I-2-a-38] | 2.79
Cc1cc(C)c(-c2ccc(Cl)cc2)c(C)c1C1=C(O)C2(CCC3(CCCO3)CC2)OC1=O (single isomer, unassigned) [Example I-2-a-42] | 3.79
Cc1ccc(C)c(C2=C(O)C3(CCC4(CCCO4)CC3)OC2=O)c1 (single isomer, unassigned) [Example I-2-a-2] | 2.73
Cc1cc(C)c(C2=C(O)C3(CCC4(CCCO4)CC3)OC2=O)c(Br)c1 (single isomer, unassigned) [Example I-2-a-33] | 2.95
CCc1cc(C)cc(C)c1C1=C(O)C2(CCC3(CCCO3)CC2)OC1=O (single isomer, unassigned) [Example I-2-a-14] | 2.73
CCc1cc(Cl)cc(C)c1C1=C(O)C2(CCC3(CCCO3)CC2)OC1=O (single isomer, unassigned) [Example I-2-a-44] | 2.82
